- PROTOCOL TEXT: in vivo
- Design: species or system mouse
- CONDITION CONTEXT: female, CD1, mouse, in vivo; read-out: Kp u,u, concentration in brain vs. plasma
ENDPOINT NAME: Kp

For COc1ccc(NC(=O)N2CCCCN3[C@H](CN(C)C)[C@H](c4ccc(C#Cc5ccccc5)cc4)[C@@H]3C2)cc1 , what is its reported Kp? 2 to 7

====

- Test system: T. gondii tachyzoites (type II ME49-FLuc)
- PROTOCOL TEXT: Luciferase-based tachyzoite growth assay
- Assay type: cell-based, Toxoplasma gondii
- Set-up: unit: µM
- CONDITION CONTEXT: Fig 1A rank order, T. gondii growth
ENDPOINT NAME: EC50 log inhib vs normalized response
Reply: number alone, nothing else.

For CN(C[C@@H]1[C@H](c2ccc(C#Cc3ccccc3)cc2)[C@@H]2CN(C(=O)Nc3ccc(OC4CC4)cc3)CCCCN12)S(C)(=O)=O , what is its reported EC50 log inhib vs normalized response? 0.01849

Again, but for COc1ccc(NC(=O)N2CCCCN3[C@H](CO)[C@H](c4ccc(C#CC5CC5)cc4)[C@@H]3C2)cc1 1.609

Again, but for COc1ccc(NC(=O)N2CCCCCN3[C@H](CO)[C@H](c4ccc(C#Cc5ccccc5)cc4)[C@@H]3C2)cc1 0.1693

Again, but for COc1ccc(NC(=O)N2C[C@@H](O)[C@@H](O)CN3[C@H](CN(C)C)[C@H](c4ccc(C#Cc5ccccc5)cc4)[C@@H]3C2)cc1 0.03927

Again, but for COc1ccc(NC(=O)N2CCCCN3[C@H](CN4CCN(C)CC4)[C@H](c4ccc(C#Cc5ccccc5)cc4)[C@@H]3C2)cc1 0.4249

Again, but for O=C(NC1CCC1)N1CCCCN2[C@H](CO)[C@H](c3ccc(C#Cc4ccccc4)cc3)[C@@H]2C1 2.575

Again, but for O=C(Nc1cccc(F)c1)N1CCCCN2[C@H](CO)[C@H](c3ccc(C#Cc4cccnc4)cc3)[C@@H]2C1 0.4926

====

- System: T. gondii RHΔΔ TgPheRS[M484I] [V262A] double mutant
- PROTOCOL TEXT: Tachyzoite lytic assay, M484I_V262A double mutant
- Format: cell-based, Toxoplasma gondii
- CONDITION CONTEXT: Toxoplasma gondii; Table S4, V262A-M484I; read-out: EC50 (growth restriction)
ENDPOINT NAME: EC50 (µM)
Please reply with the bare figure in µM and do not write the unit itself.

For COc1ccc(NC(=O)N2CCCCN3[C@H](CN(C)C)[C@H](c4ccc(C#Cc5ccccc5)cc4)[C@@H]3C2)cc1 , what is its reported EC50? 0.234
